For each entry below, report its apparent KD of MS2 coat protein value.
system: MS2 coat protein; test: apparent KD of MS2 coat protein; designed switch direction (-1 OFF switch, 1 ON switch): -1; higher = weaker reporter binding; details: input ligand: FMN 200 uM
Give bare numbers, in nM.

| sequenceContent | apparent KD of MS2 coat protein (nM) |
| --- | --- |
| AAUUAAGCAAGCAGAUCCCACAUGAGGAUCACCCAUGUGCUCGUCUUAUAAGGUACUGUGACGAUAGUCACGGUACC [Mat - Sensor, turn-off var - Eli Mod - D71] (Eterna round: R97, puzzle: Sensor, turn-off variant 1) | 135 |

Endpoint output: apparent KD of MS2 coat protein of GCGCGGACAGGAUAUACAUGAGGAUCACCCAUGUGUGAGGCUAACAGUGCCAACUCUGGUAGAAGGGUCCCGGG [EX3 B.19] (Eterna round: R97, puzzle: Exclusion 3) . Value?
269

====

tested on: K4 kissing-loop RNA reporter; assay: apparent KD of K4 kissing-loop reporter; higher = weaker reporter binding; details: Eterna round: R107; input ligand: arginine 13.2 mM;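 note: bound reporter read as fluorescence of individual clusters on recovered sequencing chips by microscopy, with normalized cluster intensities fitted with a binding model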
propertyMeasured: apparent KD of K4 kissing-loop reporter (nM)
One number for each entry, in nM.

| sequenceContent | readoutUnit | apparent KD of K4 kissing-loop reporter |
| --- | --- | --- |
| ACGUCCGGAUUAAUCGUGGGCAUGGUCGAUACCAGAUCUUUAAUGAUCCCUUGGCAGCGACAUGAGUGAUGUUCAUGUGCGAUGA [KL-XTheo-A8 #analogue] | nM | 152 |
| AGCGUCUGAAGAGGAUAUGACCAGUGAUGUUGGUUACUACCUCAAAUUAGUGUCUCGUCAAAAUCGUCAGAAGGCUUCGACGAGC [#09 K4 FMN B Exclusion] | nM | 96.2 |
| GCUAGCAAUGCAGGAUAUUAAAACGAGUGAUGUUCGGUACCGAGGAUGGGAAACCAUCCUCGGUAAUAAGAAGGGCAUUGCUAGC | nM | 182 |
| GGAUAGGACGGAGGAUAUGGGCUAGGCAAGAAUAACUUGUCUAGCAAAUCCAUGAGGAGUGAUGUUCCAGAAGGUUGUCCUAUCG [FmnBX 1 G10+U75] | nM | 94.7 |
| GCCGUAGAUGGAAGGAGCGUGGUUAAUGUAAGUGAUGUUUACGAGGUCAACAAUUGACCGCCACAGGUAGGUCGCCAUCUACGGC | nM | 57.4 |

Each of the following entries comes with a recorded value; kindly state apparent KD of K4 kissing-loop reporter for each.
1. CUCGUGGGUUUGAGAGGGCUUGUGGGAAGUGAGGAUAUUUAGGGAGAAAGAAGGCACUAUAAAAUAUAGUGAUGUUAUAUAAGGG [SSFMNA.M]
2. AGUUAUGUAUCAGGAUAUUAGUGAUGUUUGUUUAUGUUAGUGAUGUUGAUAUUUGUUUUAUGUAUUUAAGAAGGGAUUGAGAUGU [ccgcmullin]
3. AAGCAUUCUUCGGAAUGCAGACCCGCUGAGGAGGAUAUGACGAAAGUCAGAAGGUUUCAGUGAUGUUGAGGCCUCCUCAAUGGUC [whbob_Ex_FMNA__2th182]
4. UGAUACCAGACGGCCGCCACUCCCGCAGGUCAAAGACCUGCGAAGCUGGUUCUUCAGUGAUGUUGGAGGACCGGGUCUGGUAUCU [FiskerMod 24 - Jieux - Exclusion - Tryptophan B]

1: 138; 2: 20.7; 3: 256; 4: 230

Each of the following entries comes with a recorded value; kindly state apparent KD of K4 kissing-loop reporter for each.
1. CUUGUACAUGCCGAGGUAGGUGCGGGUUAGCGAGGACCGGUACGGCCGCCACUCGCCAAGUGAUGUUUGGUCCUUUGGAUCGGCA
2. GCCGUACGCAUGGAUACCAGUUGCGAAGUGAUGUUUCGGGCGAUCAAAGGAUCGCCCAACAACCCUUGGCAGCCAUGCGUACGGC

1. 453
2. 42.5

Each of the following entries comes with a recorded value; kindly state apparent KD of K4 kissing-loop reporter for each.
1. CGCGCCCAGCCGGAUACCAGUGACCCGCUGGGAACCGCGGGCCCAGAGUGAUGUUCGGGACACCCUUGGCAGCCGCCUGGGCGAC [#2 Same State - Theophylline B Attempt #8 (HarryS)]
2. AAGUGUCAUUAGACACACCGAUGUAUAAACUAGGAUAUGCUGAUAAGCAGAAGGAGUGAUGUUCCUUUCAUCAUCGGAAUUAAAU [#06 K4 FMN A Exclusion]
3. UGUCAUUGGUCGGCCGCCACUUCGUAUGAAGUGAUGUUUUGUAGAUUGUGUUGAAAGGUGUGGUGAAGGACCGGGACCGAUGACU [FiskerMod 23 - Jieux - Same State - Tryptophan B]
4. CCGAAGAACCAGUGAUGUUGGUUGACUAGACAGGAUAUGAGCAACAUCAGAAGGGUCUGGCUUCGGGAGUGGGUUGCGCUGACCU [Onbizaes]
5. AGGUUUUGAUUAGGAUAUGCACUGACGACGAGAAUAUAGUGAUGUUAUAUACUACGAAUUAGUAGAGUAGAAGGGAUUGAGGUUU [SSFMNB.Y]

1. 378
2. 161
3. 623
4. 259
5. 265

Each of the following entries comes with a recorded value; kindly state apparent KD of K4 kissing-loop reporter for each.
1. UGUUUUUACUGAAGGAGCGGCAAUUGAUACGUAGAUAUAGUGAUGUUAUAUAAGAUAGAGAGCCAGGUAGGUCGCAGAAUGUAUC [ExArgB.aC]
2. CCGUGGAGUGAUGUUCCACGUUCUACGGAUACCAGCCACGCCAGCGGCCCUUGGCAGCCGCACCUUGCAGUGAUGUUGUGAGGCU [Same State Theophylline A GF 5]
3. AAGGGCGAGGUAACGUGGAUAUCUCGUCGCAAGGAUAUCUGGAAACAGAGAAGGUGCGACAUCACCGGCAGUGAUGUUGCUGGGC
4. GCGUGGCAGGCGGCCGCCACUCGGACGAGUCACAGUGAUGUUGUGGUUUGCCAGUCGUCUUCAUCGAGGACCGGGUUUGUUGCGC [Exclusion Tryptophan B GF 18]
5. AUUUUUUACAGAAGGAGCGUGUUUUAAUAAUCAUGGUGCUUAGCGAGUGAUGUUCGCUUUACACAGGUAGGUCGCUGUUUAUUUA [JR_Nu_ExcArginiB_Sub030]
6. UGUACCGACUCAGGAUAUGUCGUCGAAAGACGAAAUGGAGUGAUGUUCCUUAAACUGCGAAAGCAGACAGAAGGGAGUUGGUACU [FmnBS 29 C9+G77]
7. UUAUAUAUAUCAGAUACCAGCAUAAUGGAAACAAAUUAUGUUAUGAGUGAUGUUCAUGUAUGCCCUUGGCAGCUGGUAUGGGUUU [KL-XTheo-B19]

[212, 312, 185, 169, 113, 200, 412]

Endpoint output: apparent KD of K4 kissing-loop reporter of GGAGCAGGUGAAGGAUAUCCCGGGCCAGAGUGAUGUUCUGGAUCCCUUGCCGUUUCUAAACGGGUGGGAGAAGGUCACUGAUAAG [Bibimati] . Value?
154
